test: Quantitative High-Throughput drug screen in 47 multiple myeloma cell lines against the NCATS MIPE library collection: Karpas25_ECACC cell viability assay (AID 1918968; also: nearly all actives have a fitted effect of over 35% in size); details: Karpas25 myeloma viability, CellTiter-Glo ATP, 48 h; series mostly up to 45.8 µM
Results filed as inconclusive are left out. Activity calls are given as the source filed them. Calls follow the shape of the dose curve; as a rule, active = well fitted cell-killing curve with a large enough effect; inconclusive = small, poorly fitted or top-dose-only effect, or effect the other way; inactive = no such curve, though single readings can be large or run the other way.
Returns: one label drawn from true (1) (active), false (0) (inactive)

Asked: For this molecule, state the assay outcome: COc1ccc(CC2SC(=O)NC2=O)cc1C(=O)NCc1ccc(C(F)(F)F)cc1 (stereo not given)
Given back: true (1)

Asked: Do the same for Nc1ccn([C@@H]2O[C@H](CO)[C@H](O)C2(F)F)c(=O)n1 please
Given back: true (1)

Asked: Do the same for CCCNC(=O)Nc1ccc(Oc2ncnc3cc(OC)c(OC)cc23)cc1Cl please
Given back: false (0)

Asked: Do the same for O=C(O)c1ccc2cc(-c3ccc(O)c(C45CC6CC(CC(C6)C4)C5)c3)ccc2c1 please
Given back: true (1)

Please examine the following record next.
Asked: For this molecule, state the assay outcome: O=C(NCCS(=O)(=O)c1ccc(C(F)(F)F)cn1)c1ccc(Cl)cc1
Given back: false (0)

----------
system: MCC-13; assay: qHTS assay to identify novel small-molecules to repurpose for Merkel cell carcinoma treatment (AID 1296009); settings: MCC and control cell lines, CellTiter-Glo viability, 72 h; series mostly up to 46 µM; also: nearly all actives have a fitted effect of over 60% in size
Inconclusive results are not listed. Activity calls are given as the source filed them. The call rests on the fitted dose curve; in most records, active means well fitted inhibition curve with a large enough effect; inconclusive means small, poorly fitted or top-dose-only effect; inactive means flat fitted curve, though single readings scatter.
Returns: one label drawn from active, inactive

Answered cases to consult:
Asked: For this compound, state the assay outcome: C=CC(=O)Nc1cccc(Oc2nc(Nc3ccc(N4CCN(C)CC4)cc3)ncc2Cl)c1
Given back: active

Asked: Do the same for COc1ccc(C=Cc2cc(OC)c(OC)c(OC)c2)cc1O please
Given back: inactive

Asked: Do the same for COc1cc2c(Nc3ccc(NC(=O)c4ccccc4)cc3)ncnc2cc1OCCCN1CCOCC1 please
Given back: inactive

Asked: Do the same for CC1(C)O[C@@H]2C[C@@H]3[C@H]4C[C@@H](F)C5=CC(=O)C=C[C@]5(C)[C@@]4(F)[C@@H](O)C[C@]3(C)[C@]2(C(=O)CO)O1 please
Given back: inactive

Asked: Do the same for COc1cccc(-c2ccc(NC(=O)C3=C(C(=O)O)CCC3)c(F)c2)c1 please
Given back: inactive

Asked: Do the same for CC1(O)CC(c2nc(-c3ccc4ccc(-c5ccccc5)nc4c3)c3c(N)nccn23)C1 (centres undefined) please
Given back: inactive

Continuing:
Asked: For this compound, state the assay outcome: CCCCCN(CCC12CC3CC(CC(C3)C1)C2)C(=O)NCCCc1ccncc1
Given back: inactive

Asked: Do the same for CN[C@H]1CCc2cc(OC)c(OC)c(OC)c2-c2ccc(OC)c(=O)cc21 please
Given back: active

----------
test: Quantitative High-Throughput drug screen in 47 multiple myeloma cell lines against the NCATS MIPE library collection: KMS34_JCRB cell viability assay (AID 1918985); conditions: KMS34 myeloma viability, CellTiter-Glo ATP luminescence, 48 h; series mostly up to 45.8 µM; also: nearly all actives have a fitted effect of over 40% in size
Results filed as inconclusive are left out. Calls of active or inactive are those of the source. Calls come from the whole dose curve; as a rule, active = well fitted cell-killing curve with a large enough effect; inconclusive = small, poorly fitted or top-dose-only effect, or effect the other way; inactive = no such curve, though single readings can be large or run the other way.
Returns: one label drawn from TRUE (active), FALSE (inactive)

Answered cases to consult:
Asked: For this molecule, state the assay outcome: O=C(O)c1ccc2cc(-c3ccc(O)c(C45CC6CC(CC(C6)C4)C5)c3)ccc2c1
Given back: TRUE

Asked: Do the same for COc1ccc(C=Cc2cc(OC)c(OC)c(OC)c2)cc1O please
Given back: FALSE

Continuing:
Asked: For this molecule, state the assay outcome: COc1cc(OC2CCN(C)CC2)ccc1Nc1ncc2c(n1)n(C1CCCC1)c(=O)n2C
Given back: TRUE

Asked: Do the same for O=C(NC1CCNCC1)c1[nH]ncc1NC(=O)c1c(Cl)cccc1Cl please
Given back: TRUE

Asked: Do the same for Nc1ncnc2c1c(-c1cnc3[nH]ccc3c1)nn2C1CCCC1 please
Given back: TRUE

Data provenance: PubChem BioAssay (NCATS)
